System: MvaT
Assay: PBM 8-mer E-score (mean of HK and ME arrays) (E-score (dimensionless, -0.5 to 0.5)); higher = stronger relative binding preference
Whole data set: some 33,000 sequences, median “E-score (dimensionless, -0.5 to 0.5)” near -0.058, cut for the highest 2% near 0.35. The entries come from a sample that favours the highest values as a whole.
value-kind: PBM 8-mer E-score
No unit in the answer, please; the number alone is enough.

Some entries whose results are on file:
# sequence-data, PBM 8-mer E-score
measured = [
    ("TAGATATA", 0.368),
    ("GATTCTGA", -0.00658),
    ("AACCACTG", -0.0219),
    ("ACACATTG", 0.113),
    ("CAGATATA", 0.237),
]

Now, please, on to the next sequence.
Test system MvaT; read-out PBM 8-mer E-score; what value for ACTTGCAG ?
0.0173

====

// PBM 8-mer E-score lookup, one value per entry
Test system: MvaT
Experiment: PBM 8-mer E-score (mean of HK and ME arrays) (E-score (dimensionless, -0.5 to 0.5)); higher = stronger relative binding preference
Whole data set: some 33,000 sequences, median “E-score (dimensionless, -0.5 to 0.5)” near -0.058, cut for the highest 2% near 0.35. The sample as a whole holds a higher share of the highest values than the screen did.
Please state the value as a number alone, without comment.

# sequence-data, experimental-target, value-kind, result-number
data = [
    ("AAGTTTAC", "MvaT", "PBM 8-mer E-score", 0.157),
    ("AGTTTTAG", "MvaT", "PBM 8-mer E-score", 0.162),
    ("AATATAGA", "MvaT", "PBM 8-mer E-score", 0.365),
    ("AATATAGC", "MvaT", "PBM 8-mer E-score", 0.343),
    ("AATAGAGA", "MvaT", "PBM 8-mer E-score", 0.217),
]

Form field: PBM 8-mer E-score recorded for AAGTTTAT with MvaT (enter value)
0.358

Test system MvaT; read-out PBM 8-mer E-score; what value for AAAGTATC ?
0.211

Hello, I am looking for reported PBM 8-mer E-score with MvaT for GAAGTATA . Could you help?
0.263

====

System: MvaT
Experiment: PBM 8-mer E-score (mean of HK and ME arrays) (E-score (dimensionless, -0.5 to 0.5)); higher = stronger relative binding preference
Whole data set: some 33,000 sequences, median “E-score (dimensionless, -0.5 to 0.5)” near -0.058, cut for the highest 2% near 0.35. The full list was thinned out, with the highest values kept by preference.
Kindly return criterion met if reported PBM 8-mer E-score is no lower than 0.3; return criterion not met if it is lower.

Item AAAAAATG with PBM 8-mer E-score of 0.3 or above?
criterion not met

Tell me whether PBM 8-mer E-score is at least 0.3 here: CAAATATA
criterion met

Assess whether reported PBM 8-mer E-score for AAAAAGGT sits at 0.3 or higher.
criterion not met

Please check the record GAGGCACC and state if its PBM 8-mer E-score is at or above 0.3.
criterion not met

Decide: PBM 8-mer E-score of AGACTAAC >= 0.3?
criterion not met

Is reported PBM 8-mer E-score greater than or equal to 0.3 here: TAGAGACA
criterion not met

Tell me whether PBM 8-mer E-score is at least 0.3 here: GAATAATC
criterion not met

Check if PBM 8-mer E-score >= 0.3 (inclusive). Item: AAATAATG
criterion met

Is the recorded value of PBM 8-mer E-score equal to or greater than 0.3 for this sequence? GAAATATA
criterion met

Does PBM 8-mer E-score meet or surpass 0.3 for AGTGCCGG ?
criterion not met

Does the reported PBM 8-mer E-score for CAAATATG fall at or above the 0.3 mark?
criterion not met

Quick check, PBM 8-mer E-score >= 0.3? ACATAATC
criterion not met

I'd appreciate it if you could say whether CAAAAATA has PBM 8-mer E-score at least equal to 0.3.
criterion not met

====

Measured PBM 8-mer E-score, listed per entry for reference.
Test system: MvaT
Assay: PBM 8-mer E-score (mean of HK and ME arrays) (E-score (dimensionless, -0.5 to 0.5)); higher = stronger relative binding preference
In all, about 33,000 sequences were measured (“E-score (dimensionless, -0.5 to 0.5)”: median about -0.058, highest 2% from about 0.35 on). The entries come from a sample that favours the highest values as a whole.
// print number alone

Answered cases to consult:
# sequence-data, experimental-target, PBM 8-mer E-score
data = [
    ("CATATACC", "MvaT", 0.166),
    ("CTCATATA", "MvaT", 0.324),
    ("GAAACTTA", "MvaT", 0.235),
    ("ACAACTTA", "MvaT", 0.357),
    ("AAAACTTG", "MvaT", 0.1),
    ("ACATTATA", "MvaT", 0.396),
    ("CATATAGG", "MvaT", 0.151),
    ("GAGGGATA", "MvaT", -0.0756),
]

Value lookup for PBM 8-mer E-score; key = TAAACTGA
0.205

Report PBM 8-mer E-score for ATTGCAAT please.
0.27

// query PBM 8-mer E-score value for entry AAAACTTC
0.149

Can you look up the measured PBM 8-mer E-score of AAAACTTA for me?
0.386

Entry ACGTGGCC : reported PBM 8-mer E-score = ?
-0.18

Given the sequence ACAACTGA , what is its reported PBM 8-mer E-score?
0.0852

Value lookup for PBM 8-mer E-score; key = CATATCTA
0.122

What value of measured PBM 8-mer E-score is listed for CCGAGACA ?
-0.0391

====

Tested on: MvaT
Experiment: PBM 8-mer E-score (mean of HK and ME arrays) (E-score (dimensionless, -0.5 to 0.5)); higher = stronger relative binding preference
Whole data set: some 33,000 sequences, median “E-score (dimensionless, -0.5 to 0.5)” near -0.058, cut for the highest 2% near 0.35. The list comes from a sample in which the highest values are over-represented; it also holds close analogues and randomly drawn sequences.
value-kind: PBM 8-mer E-score

Query: PBM 8-mer E-score; subject: CCTAACCA
-0.103

What measured PBM 8-mer E-score goes with GAAATACA ?
0.0961

Recorded PBM 8-mer E-score for CAATTAAA , please?
0.305

Which PBM 8-mer E-score value is on record for AATAATGC ?
0.384

# PBM 8-mer E-score lookup, item AGTAATGG
0.124

====

PBM 8-mer E-score for assorted sequences
Test system: MvaT
Test: PBM 8-mer E-score (mean of HK and ME arrays) (E-score (dimensionless, -0.5 to 0.5)); higher = stronger relative binding preference
Whole data set: some 33,000 sequences, median “E-score (dimensionless, -0.5 to 0.5)” near -0.058, cut for the highest 2% near 0.35. The full list was thinned out, with the highest values kept by preference.

# sequence-data, experimental-target, result
records = [
    ("CAGCGAGC", "MvaT", -0.199),
    ("ACATAACG", "MvaT", 0.183),
    ("TCCTGTCA", "MvaT", -0.158),
    ("CTGCAGCC", "MvaT", -0.148),
    ("AGATAACG", "MvaT", 0.0641),
]

Please look up its PBM 8-mer E-score: GACGTTGC
-0.0956

# PBM 8-mer E-score lookup, item AGTGTGAA
0.204

Can you share its PBM 8-mer E-score? I mean this sequence: GATTGTTA
0.204

What PBM 8-mer E-score value was documented for this sequence, GAAACAGA ?
-0.0327

Query: PBM 8-mer E-score; subject: AACTTCAG
0.158

// query PBM 8-mer E-score value for entry AAAACTGT
0.0621

Which PBM 8-mer E-score value belongs to TGGCAACA ?
-0.122

Name the recorded PBM 8-mer E-score for CTATAAGA .
0.188

Can you share its PBM 8-mer E-score? I mean this sequence: GTATAAAA
0.216

Would you mind telling me what PBM 8-mer E-score value was observed for ATGGAGTA ?
0.0119

Report PBM 8-mer E-score for GACCCAGC please.
-0.26

Give the measured PBM 8-mer E-score of GACATAGA .
0.0048

Endpoint output: PBM 8-mer E-score of AATATTGC . Value?
0.307

Can you share its PBM 8-mer E-score? I mean this sequence: ATCATTCC
-0.0603

Fill in: PBM 8-mer E-score of AATTGTTA is ___
0.377

Could you tell me which PBM 8-mer E-score is on file for ACCTATAA ?
0.208

====

Tested on: MvaT
Assay: PBM 8-mer E-score (mean of HK and ME arrays) (E-score (dimensionless, -0.5 to 0.5)); higher = stronger relative binding preference
The full ranking holds about 33,000 sequences; the median of “E-score (dimensionless, -0.5 to 0.5)” is about -0.058, and the highest 2% start at about 0.35. The sample holds the highest values, similar sequences and a random draw of the others, so the mix is not that of the screen.
met means recorded PBM 8-mer E-score is 0.008 or above; not met means it is below 0.008.

# sequence-data, group
records = [
    ("GATATATC", "met"),
    ("AACCGAAG", "met"),
    ("ATCGGCGC", "not met"),
    ("GAAAGTGA", "met"),
    ("ACGGACGA", "not met"),
    ("CTTAAAAA", "met"),
    ("GCCTAAAA", "not met"),
    ("ATTAAACG", "met"),
]

Hello, I need to know if AGCGCGAT has measured PBM 8-mer E-score not below 0.008. Thanks!
not met

Reported PBM 8-mer E-score at or above 0.008? CCTGGTAA
not met

Record CTCTCATA ; criterion: PBM 8-mer E-score no lower than 0.008. Met?
not met

Could you please find out whether GAGGAATC has PBM 8-mer E-score that meets 0.008 or exceeds it?
not met

Dear colleague, could you confirm whether AACCATCA has PBM 8-mer E-score at or above 0.008?
not met

Check this sequence for PBM 8-mer E-score at or above 0.008: ATTAAACA
met

Exam item: decide whether the reported PBM 8-mer E-score for CGGGACAG is at least 0.008.
not met

Evaluate ACGGTTTC : PBM 8-mer E-score at minimum 0.008?
not met

Does the reported PBM 8-mer E-score for GTTAATGA fall at or above the 0.008 mark?
met

# bool: PBM 8-mer E-score of GGTATGAC >= 0.008
not met

Form field: PBM 8-mer E-score at least 0.008? Entry: ATAACCTA
met

Decide: is the reported value of PBM 8-mer E-score for CAGCCCTG equal to or greater than 0.008?
not met

// inclusive: PBM 8-mer E-score at least 0.008? input: CTTAAACA
met

Could you verify whether the entry CTTAATAA shows PBM 8-mer E-score of no less than 0.008?
met
